- experimental.target: Mutant CD33-GFP M13 (R91E) on 293FT cells (UniProt P20138)
- Sequence (P20138 18-364 R91E): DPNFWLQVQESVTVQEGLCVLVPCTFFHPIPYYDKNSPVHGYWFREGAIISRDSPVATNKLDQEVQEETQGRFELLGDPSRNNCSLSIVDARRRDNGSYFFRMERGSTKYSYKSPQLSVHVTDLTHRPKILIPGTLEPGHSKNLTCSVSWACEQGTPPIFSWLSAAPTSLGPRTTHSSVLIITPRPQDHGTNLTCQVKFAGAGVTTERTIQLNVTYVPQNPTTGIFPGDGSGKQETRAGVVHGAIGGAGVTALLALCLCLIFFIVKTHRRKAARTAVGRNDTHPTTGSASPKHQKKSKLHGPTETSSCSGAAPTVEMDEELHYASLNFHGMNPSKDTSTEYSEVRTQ
- test.summary: FACS, mutant CD33-GFP on 293FT cells
List of FACS binding data values.
Lab note: write the figure by itself, no unit.

Examples with answers:
# binder, FACS binding data
rows = [
    ("sdCD33_2 (VHH) VHH: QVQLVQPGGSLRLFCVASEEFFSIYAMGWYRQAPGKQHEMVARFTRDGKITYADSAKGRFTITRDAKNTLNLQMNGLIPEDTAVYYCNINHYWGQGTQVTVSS", 98.6),
    ("sdCD33_4 (VHH) VHH: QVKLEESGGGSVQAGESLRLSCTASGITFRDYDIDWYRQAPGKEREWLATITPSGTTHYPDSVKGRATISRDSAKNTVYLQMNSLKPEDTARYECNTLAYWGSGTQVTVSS", 99.1),
    ("sdCD33_8 (VHH, sdAb from a naive llama phage library; also called 424; sdAb424) VHH: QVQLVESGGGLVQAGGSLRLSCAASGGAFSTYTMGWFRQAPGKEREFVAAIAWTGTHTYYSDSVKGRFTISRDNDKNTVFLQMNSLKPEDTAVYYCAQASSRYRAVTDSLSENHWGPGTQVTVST", 99.1),
]

stdin: Looking for the measured FACS binding data of sdCD33_10 (VHH) VHH: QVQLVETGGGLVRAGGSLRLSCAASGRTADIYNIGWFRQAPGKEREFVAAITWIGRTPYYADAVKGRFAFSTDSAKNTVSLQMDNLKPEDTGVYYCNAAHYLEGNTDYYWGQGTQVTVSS , can you help?
stdout: 98.5

stdin: Looking for the measured FACS binding data of sdCD33_7 (VHH, sdAb from a naive llama phage library; also called 420; sdAb420) VHH: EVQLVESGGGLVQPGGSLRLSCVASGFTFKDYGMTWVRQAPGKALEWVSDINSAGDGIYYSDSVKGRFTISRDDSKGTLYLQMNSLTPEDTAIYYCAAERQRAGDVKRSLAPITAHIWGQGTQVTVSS , can you help?
stdout: 98.8

stdin: Looking for the measured FACS binding data of sdCD33_11 (VHH, sdAb from a naive llama phage library; also called 430; sdAb430) VHH: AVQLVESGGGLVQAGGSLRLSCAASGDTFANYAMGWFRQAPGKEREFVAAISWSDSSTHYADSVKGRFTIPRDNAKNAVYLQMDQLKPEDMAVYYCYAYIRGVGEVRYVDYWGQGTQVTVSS , can you help?
stdout: 98.7

stdin: Looking for the measured FACS binding data of sdCD33_3 (VHH) VHH: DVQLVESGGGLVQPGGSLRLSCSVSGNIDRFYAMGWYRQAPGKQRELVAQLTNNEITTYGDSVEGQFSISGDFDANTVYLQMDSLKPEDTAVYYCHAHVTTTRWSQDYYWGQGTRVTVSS , can you help?
stdout: 98.7
